Cited source: patent US20260124173A1

Assay Summary: Intestinal S9 metabolic stability, human
Format: in vitro ADME
Applied Conditions: human, s9
Observable: half-life at 1 µM

// COc1ccc([C@@]23CCC(C)=C[C@@H]2N(C)CC3)cc1OC [Compound 243] : half-life at 1 µM value = > 24 h

###

Study Target: SERT (Homo sapiens)
Construct: expressed in transfected cells
Sequence (P31645 whole entry, species assumed): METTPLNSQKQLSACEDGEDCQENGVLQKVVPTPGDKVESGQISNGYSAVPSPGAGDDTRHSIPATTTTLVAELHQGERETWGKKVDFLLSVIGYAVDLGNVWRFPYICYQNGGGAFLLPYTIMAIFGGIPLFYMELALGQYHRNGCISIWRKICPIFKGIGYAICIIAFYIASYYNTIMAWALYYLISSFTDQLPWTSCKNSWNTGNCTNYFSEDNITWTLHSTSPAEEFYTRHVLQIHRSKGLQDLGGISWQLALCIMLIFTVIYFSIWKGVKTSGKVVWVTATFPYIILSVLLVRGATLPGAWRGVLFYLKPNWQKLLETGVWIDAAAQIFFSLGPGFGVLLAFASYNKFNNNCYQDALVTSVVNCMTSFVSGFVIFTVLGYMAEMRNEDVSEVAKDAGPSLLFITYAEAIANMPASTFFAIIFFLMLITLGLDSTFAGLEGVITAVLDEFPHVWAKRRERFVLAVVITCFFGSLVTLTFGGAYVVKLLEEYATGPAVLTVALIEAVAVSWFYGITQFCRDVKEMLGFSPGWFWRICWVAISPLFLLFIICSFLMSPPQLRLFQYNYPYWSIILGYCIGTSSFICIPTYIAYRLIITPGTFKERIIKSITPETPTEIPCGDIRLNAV
Assay Summary: SERT inhibition assay (Neurotransmitter Transportation Fluorescence assay, stable 5 HTT cells)
Format: cell-based
Applied Conditions: Table B1
pIC50: −log10 of the molar value.
Observable: pIC50

// COc1ccc([C@@]23CC=C(C)C[C@@H]2N(C)CC3)cc1OC [Compound 242] : pIC50 value = > 7.30

// COc1ccc([C@@]23CCC(C)=C[C@@H]2N(C)CC3)cc1OC [Compound 243] : pIC50 value = > 7.30
